The following compounds are listed with their measured Ratio IC50 values.
Assay: Selectivity index, ratio of IC50 for inhibition of recombinant PI3Kalpha (unknown origin) using PIP2:3PS as substrate to IC50 for inhibition of recombinant PI3Kdelta (unknown origin) using PIP2:3PS as substrate
Property label: Ratio IC50

COc1ncc(-c2ccc3ncnc(N[C@H]4CCN(C(=O)C5CCOCC5)C4)c3c2)cc1C#N: 9
COc1ncc(-c2ccc3ncnc(N[C@H]4CCN(C(=O)C5CCOCC5)C4)c3c2)cc1C(=O)Oc1ccccc1: 124
COc1ncc(-c2ccc3ncnc(N[C@H]4CCN(C(=O)C5CCOCC5)C4)c3c2)cc1C(=O)Oc1ccc(F)cc1: 11
COc1ncc(-c2ccc3ncnc(N[C@H]4CCN(C(=O)C5CCOCC5)C4)c3n2)cc1C(=O)Oc1ccc(F)cc1: 3

----------
Assay: Chemical reactivity of the compound with N-Boc-Lysine assessed as half-life at 1 uM by HPLC analysis
Assay type: physicochemical
Conditions: incubation with N-Boc-Lysine
Property label: half-life at 1 µM (min)

COc1ncc(-c2ccc3ncnc(N[C@H]4CCN(C(=O)C5CCOCC5)C4)c3n2)cc1CCl: 430
COc1ncc(-c2ccc3ncnc(N[C@H]4CCN(C(=O)C5CCOCC5)C4)c3n2)cc1C(=O)Oc1ccc(Cl)cc1: 10.1
COc1ncc(-c2ccc3ncnc(N[C@H]4CCN(C(=O)C5CCOCC5)C4)c3c2)cc1C(=O)Oc1cccnc1: 2.5
COc1ncc(-c2ccc3ncnc(N[C@H]4CCN(C(=O)C5CCOCC5)C4)c3c2)cc1C(=O)Oc1ccc(F)cc1F: 3.1
COc1ncc(-c2ccc3ncnc(N[C@H]4CCN(C(=O)C5CCOCC5)C4)c3n2)cc1C=O: 2.3
COc1ccc(OC(=O)c2cc(-c3ccc4ncnc(N[C@H]5CCN(C(=O)C6CCOCC6)C5)c4n3)cnc2OC)cc1: 359
COc1ncc(-c2ccc3ncnc(N[C@H]4CCN(C(=O)C5CCOCC5)C4)c3c2)cc1C(=O)Oc1ccc(C(F)(F)F)cc1: 1.9
COc1ncc(-c2ccc3ncnc(N[C@H]4CCN(C(=O)C5CCOCC5)C4)c3n2)cc1C(=O)Oc1ccc(C)cc1: 326
COc1ncc(-c2ccc3ncnc(N[C@H]4CCN(C(=O)C5CCOCC5)C4)c3n2)cc1C(=O)Oc1ccc(F)cc1: 55
COc1ncc(-c2ccc3ncnc(N[C@H]4CCN(C(=O)C5CCOCC5)C4)c3c2)cc1C(=O)Oc1ccc(Cl)cc1: 12.7
C#Cc1ccc(-c2ccc3ncnc(N[C@H]4CCN(C(=O)C5CCOCC5)C4)c3c2)cc1C=O: 1.9
COc1ccc(OC(=O)c2cc(-c3ccc4ncnc(N[C@H]5CCN(C(=O)C6CCOCC6)C5)c4c3)cnc2OC)cc1: 387
COc1ncc(-c2ccc3ncnc(N[C@H]4CCN(C(=O)C5CCOCC5)C4)c3n2)cc1C(=O)Oc1cccnc1: 2.8
COc1ncc(-c2ccc3ncnc(N[C@H]4CCN(C(=O)C5CCOCC5)C4)c3n2)cc1C(=O)Oc1ccc(Cl)cc1Cl: 1.1
COc1ncc(-c2ccc3ncnc(N[C@H]4CCN(C(=O)C5CCOCC5)C4)c3c2)cc1C(=O)Oc1ccc(C)cc1: 353
COc1ncc(-c2ccc3ncnc(N[C@H]4CCN(C(=O)C5CCOCC5)C4)c3n2)cc1C(=O)Oc1ccccc1: 169
COc1ncc(-c2ccc3ncnc(N[C@H]4CCN(C(=O)C5CCOCC5)C4)c3c2)cc1C(=O)Oc1ccc(Cl)cc1Cl: 1.2
COc1ncc(-c2ccc3ncnc(N[C@H]4CCN(C(=O)C5CCOCC5)C4)c3n2)cc1C(=O)Oc1ccc(C(F)(F)F)cc1: 1.7
COc1ncc(-c2ccc3ncnc(N[C@H]4CCN(C(=O)C5CCOCC5)C4)c3c2)cc1C=O: 2.1
COc1ncc(-c2ccc3ncnc(N[C@H]4CCN(C(=O)C5CCOCC5)C4)c3c2)cc1C(=O)Oc1ccc(F)cc1: 67
COc1ncc(-c2ccc3ncnc(N[C@H]4CCN(C(=O)C5CCOCC5)C4)c3c2)cc1C(=O)Oc1ccccc1: 144
C#Cc1ccc(-c2ccc3ncnc(N[C@H]4CCN(C(=O)C5CCOCC5)C4)c3n2)cc1C=O: 2.1
COc1ncc(-c2ccc3ncnc(N[C@H]4CCN(C(=O)C5CCOCC5)C4)c3c2)cc1CCl: 420
